- procedure text: growth inhibitors of H69AR lung tumor, primary screen, human, duplicate replicates (AID 580);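 also: 100% = mean luminescence of untreated wells and 0% = no signal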
- assay conditions: H69AR lung tumor cells viability, ATP luminescence, 72 h; at 10 µM
Activity calls are given as the source filed them.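 The calls were made as follows: active = viability at or under a set limit in both replicates, limit being median viability minus 3 SD (cut at about 48% in these data, passing the limit was not always enough); inconclusive = at or under the limit in just one replicate; inactive = at or above the limit in both replicates.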
Answer with one of the outcomes yes (active), no (inactive)

compound	class label
COc1ccc(-n2c(SCC(N)=O)nc3sc4c(c3c2=O)CCN(C)C4)cc1	no
Cc1csc(NC(=O)CCS(=O)(=O)c2ccc(Br)cc2)n1	no

Could you kindly confirm the outcome this assay logged for O=C(Nc1nonc1NC(=O)C1CCCCC1)C1CCCCC1 ?
no

Then this compound: CC(=O)Oc1cccc2c1C(=O)c1c(OC(C)=O)cc(C(=O)O)cc1C2=O
no

Then this compound: Brc1c(NC2=NCCN2)ccc2nccnc12
no

Then this compound: Oc1cccc(Nc2nc(NCC3CCCO3)c3ccccc3n2)c1 (stereo unspecified)
yes

---

- procedure text: reversal of MRP1-mediated doxorubicin resistance, pilot screen, H69AR cells, doxorubicin co-treatment (AID 601)
- assay conditions: H69AR cells, CellTiter-Glo, 72 h; compound alone cytotoxicity; at 10 µM
result type: viability (%)
Numeric only. Scale: %

molecule	viability, %
CN1CCN(C2=Nc3ccccc3Oc3ccc(Cl)cc32)CC1	73.6
CCOC(=O)c1ccccc1NC(=O)c1c(O)c2ccccc2n(CC)c1=O	71.3
Cc1ccc2cc(CN(Cc3ccc(F)cc3)Cc3nnnn3C3CCCC3)c(=O)[nH]c2c1	78.7
O=C(NCc1ccco1)c1cc2cc3ccc(Cl)cc3nc2o1	2.59
Cc1ccc(C)c(N2CCN(Cc3nnnn3C3CCCCC3)CC2)c1	71
Cn1c(=O)c2c(nc(NCc3ccco3)n2C/C=C/c2ccccc2)n(C)c1=O	101
NC(=O)c1cc(-c2ccccc2)nc(Oc2ccccc2)n1	98.7
Cn1cccc1Cc1nnc(SCC(N)=O)n1-c1ccc(F)cc1	99.8

Find the recorded viability belonging to CCOC(=O)CCNC(=O)Nc1ccc2nc(C)n(Cc3ccccc3Cl)c(=O)c2c1 and report it.
94.9

Then this molecule: CCn1c(SCc2cccc(C(F)(F)F)c2)nnc1-c1ccco1
90.1

Then this molecule: COc1ccc(OC)c(-c2nc3c(C)n[nH]c(=O)c3[nH]2)c1
69.5

Then this molecule: CCOC(=O)C(C)C1(O)c2ccccc2-c2ncccc21 (stereo not given)
102

Then this molecule: COCCn1c(Sc2nc(C)cs2)nc2c1c(=O)[nH]c(=O)n2C
101

---

viability values by entry
- procedure text: reversal of MRP1-mediated doxorubicin resistance, pilot screen, H69AR cells, doxorubicin co-treatment (AID 601)
- assay conditions: H69AR cells + 2 uM doxorubicin, CellTiter-Glo, 72 h; measured here: viability with 2 uM doxorubicin; at 10 µM; stronger effect = lower value
Numeric only. Scale: %

// below: answered compounds
compound	viability / %
COc1ccc(Cn2nnnc2C(c2ccncc2)N2CCOCC2)cc1 (stereo unspecified)	91.4
O=C(Nc1ncnc2sc3c(c12)CCC3)c1ccco1	83

Find the recorded viability belonging to O=C(CSCc1ccccn1)Nc1ccccc1 and report it.
86.4

---

viability values by entry
- procedure text: reversal of MRP1-mediated doxorubicin resistance, pilot screen, H69AR cells, doxorubicin co-treatment (AID 601)
- assay conditions: H69AR cells + 2 uM doxorubicin, CellTiter-Glo, 72 h; measured here: viability with 2 uM doxorubicin; at 10 µM; stronger effect = lower value
Numeric only. Scale: %

// below: answered compounds
compound	result type	recorded measurement
CC(C)CN(CC(C)C)C(=O)CS(=O)(=O)Cc1ccccc1	viability	88.2
CCOC(=O)c1ccc(CNC(=O)C(Cc2c[nH]c3ccccc23)NC(C)=O)o1 (stereo unspecified)	viability	92.3
COc1ccccc1CN(Cc1nc2ccccc2c(=O)[nH]1)C(=O)Nc1ccccc1	viability	89.9

Find the recorded viability belonging to CN(C)CCCOC(=O)CCc1ccccc1 and report it.
93.9

Then this compound: O=C(NCC(F)(F)F)Nc1cccnc1
93.6

Then this compound: CCOc1ccc(C(CC(=O)O)NC(=O)c2ccco2)cc1OC (stereo unspecified)
92.3

Then this compound: CCOc1ccccc1C1CC(=O)Nc2cc3c(cc21)OCO3 (stereo unspecified)
60.9

Then this compound: COc1ccc(-c2nsc(SCC(=O)Nc3cc(C)on3)n2)cc1
90.2

Then this compound: FC(F)(F)c1ccc(Sc2nnc(-c3cccs3)n2CC2CCCO2)nc1 (stereo unspecified)
88.4

Then this compound: CCOC(=O)N1CCN(C(=O)CN(Cc2ccccc2)S(=O)(=O)c2ccc(OC)c(C)c2)CC1
102

Then this compound: c1ccc(-c2csc(N3CCCCCC3)n2)cc1
85.6
